// provenance: PubChem BioAssay (NCI)

log10 TGI values by entry
Tested on: HCT-15 colon
protocol.text: NCI tumour cell line growth inhibition, 48 h
Field: value | Transform: log10 | Quantity: TGI | Unit: µM

Give its log10 TGI value. Item: CN(C)CCCn1c(-c2ccc(Br)cc2)csc1=Nc1ccccc1
1.85

What value of measured log10 TGI is listed for COc1cc2c(cc1C)NC(=O)/C2=C/c1c(Cl)[nH]c2ccccc12 ?
1.16

* * *

Tested on: UACC-62 melanoma
protocol.text: NCI tumour cell line growth inhibition, 48 h
measured.parameter: TGI (µM)
State the answer as a number, implicitly in µM.

Which TGI is listed for N#Cc1cnn(C(=O)c2nn(-c3ccc(Cl)cc3)cc2O)c1N ?
2.22

// returns reported TGI for input CC(C)(C)n1cc(-c2ccnc(NCCCNS(=O)(=O)c3cccc4ccccc34)c2)c(-c2cccc(O)c2)n1
3.28

Query (compound): COc1ccc(/C(=C(\c2ccccc2)[N+](=O)[O-])c2ccc(OCCN3CCCC3)cc2)cc1 ; field requested: TGI
4.24

If you can, please state the reported TGI value of COc1cc(/C=N/NC(=O)c2cnn3c2NC(c2ccccc2)C3)ccc1OCc1ccccc1 (centres undefined) .
7.14

* * *

Test system: MOLT-4 leukemia
protocol.text: NCI tumour cell line growth inhibition, 48 h
measured.parameter: TGI

Examples with answers:
> print(dat)
                                   compound  measured.parameter   measured
1  CCCCCn1sc(=O)n(Cc2ccc(CNC(=O)C(C)c3ccc(CC(C)C)cc3)cc2)c1=O (centres undefined)                 TGI  > 22.5 µM
2  CNC(=O)OC1/C(C)=C\C(C)C(O)C(OC)CC(C)CC2=C(OC)C(=O)C=C(C2=O)N(C)C(=O)/C(C)=C/C=C\C1OC (centres undefined)                 TGI    3.74 µM
3  O=C(O)COc1c(Cl)cc(Cl)c(C(c2c(Cl)cc(Cl)c(OCC(=O)O)c2Cl)C(Cl)(Cl)Cl)c1Cl                 TGI   > 100 µM

--- query ---
Sample C#C[C@]1(O)CC[C@H]2[C@@H]3CCC4=C/C(=N/OC(=O)c5cccc6cc7ccccc7nc56)CC[C@@H]4[C@H]3CC[C@@]21CC — what was its TGI?
> 100 µM

* * *

Tested on: ACHN renal
protocol.text: NCI tumour cell line growth inhibition, 48 h
In this section, each of the compounds is paired with its reported TGI.

compound	measurement.target	measured
O=C1CC2(CCN(Cc3ccccc3)CC2)C(=O)N1N1CCCCC1	ACHN renal	> 100 µM
COc1ccc(/C=N/n2c(-c3ccccc3)n[nH]c2=O)c(OC)c1	ACHN renal	> 75.5 µM
CCN(CC)C(=O)Cc1[nH][nH]c(=O)c1C(=O)N(CC)CC	ACHN renal	> 100 µM

Any idea what TGI was measured for C=C(C)[C@@H]1CC[C@]2(C(=O)O)CC[C@]3(C)[C@H](CC[C@@H]4[C@@]5(C)CCC(N)C(C)(C)[C@@H]5CC[C@]43C)[C@@H]12 (stereo partly specified) ?
5.32 µM

Looking for the measured TGI of O=C(NCC(O)COc1ccccc1)c1ccccc1O (stereo unspecified) , can you help?
> 100 µM

Request the reported TGI associated with CC1=C(\C=C/C(C)=C/C=C/C(C)=C/C=C/C=C(C)\C=C\C=C(C)/C=C/C2=C(C)CCCC2(C)C)C(C)(C)CCC1
> 100 µM

Bench note: what TGI did NC1=Nc2ncccc2C(=O)NN1 show?
> 10 µM

Given CC(=O)OC1(C(C)=O)CC2(c3ccccc3)OC1(c1ccccc1)c1ccccc12 (stereo unspecified) , state its recorded TGI.
> 100 µM

Request the reported TGI associated with Cc1n[nH]c(=O)c2c3c([nH]c12)-c1ccccc1C3
> 100 µM

Consider the compound shown here: O=C1c2cccc3cc([N+](=O)[O-])cc(c23)C(=O)N1c1ccc(OCCN2CCCC2)cc1 What is its recorded TGI?
28.1 µM

Suppose we examine the compound Oc1ccccc1/C=N\NC(=S)Nc1ccc(F)cc1 ; what TGI value has been reported?
> 100 µM

For the compound O=C1OC(c2ccccc2)=N/C1=C\c1ccccc1 , what TGI is on record?
> 100 µM

What measured TGI goes with OC[C@H]1C[C@](O)(c2ccccc2Cl)[C@@H](c2ccccc2Cl)O1 ?
91.2 µM

What measured TGI goes with CN(C)NC(=O)NC12CC3CC(CC(C3)C1)C2 ?
> 100 µM

What measured TGI goes with CCCCCCCCCC(=O)Oc1ccc(/C(=C(/C)c2ccccc2)c2ccc(OCCN3CCCC3)cc2)cc1 ?
15.5 µM

Quick one: TGI of COc1ccc(C(CC(=O)c2cccs2)C(=O)c2ccc3c(c2)OCO3)cc1 (stereo unspecified) ?
> 100 µM

GET /values?readout=TGI&item= CCCNC(=O)c1cc(OC)c(OC)cc1NC(=O)C12CC3CC(CC(C3)C1)C2
30.9 µM
